These data points were gathered from ChEMBL document CHEMBL3351705.

# Test system: Mus musculus
# PROTOCOL_TEXT: Neurotoxicity in mouse S180 cells allografted mouse assessed as induction of tetanus behaviors at 1 umol/kg, ip for 7 consecutive days
# Type: toxicity, organism-based, CCRF S-180
# TEST_SETTINGS: in vivo
VALUE_KIND: Activity

O=C(N[C@@H](Cc1c[nH]c2ccccc12)C(=O)N[C@@H](Cc1c[nH]c2ccccc12)C(=O)N[C@@H](Cc1ccccc1)C(=O)OCc1ccccc1)c1cc2ccc(O)cc2oc1=O :: Non-toxic
O=C(O)c1cc2ccc(O)cc2oc1=O :: Non-toxic
O=C(CC[C@H](NC(=O)[C@H](Cc1c[nH]c2ccccc12)NC(=O)[C@H](Cc1c[nH]c2ccccc12)NC(=O)c1cc2ccc(O)cc2oc1=O)C(=O)OCc1ccccc1)OCc1ccccc1 :: Non-toxic
